Test system: P. falciparum strain 3D7-Netherlands
Assay: In vitro IC50, 3H-hypoxanthine incorporation, P. falciparum 3D7
Assay type: cell-based, Plasmodium falciparum
Settings: Plasmodium falciparum; P. falciparum strain 3D7; read-out: IC50 [nM] P.f.(3D7)
Parameter Measured: IC50
Remember to put the unit after the number in your answer.

> print(dat)
                                   compound  parameter.measured  test.result
1  COc1ccc2c(c1)CCC1C2CC[C@@]2(C)C1C[C@@H](NCc1ccccc1O)[C@H]2O (stereo partly drawn)                IC50       101 nM
2  COc1ccc2c(c1)CCC1C2CC[C@@]2(C)C1CC[C@H]2NCc1ccc(O)cc1 (stereo partly drawn)                IC50       115 nM
3  COc1ccc2c(c1)CCC1C2CC[C@@]2(C)C1CC[C@@H]2NCc1cc2ccccc2cc1O (stereo partly drawn)                IC50         7 nM

Consider the compound shown here: CCN(CC)c1ccc(CN[C@H]2CCC3C4CCc5cc(OC)ccc5C4CC[C@@]32C)c(O)c1 (stereo partly drawn) What is its recorded IC50?
716 nM

Which IC50 value belongs to COc1ccc2c(c1)CCC1C2CC[C@]2(C)C[C@@H](NCc3ccccc3O)CC12 (stereo partly drawn) ?
62 nM

GET /values?readout=IC50&item= COc1ccc2c(c1)CCC1C2CC[C@@]2(C)C1C[C@H](NCc1ccccc1O)[C@H]2O (stereo partly drawn)
676 nM

Sample COc1ccc2c(c1)CCC1C2CC[C@@]2(C)C1CC[C@H]2NCc1cccc(O)c1 (stereo partly drawn) — what was its IC50?
440 nM

What does the data say about its IC50? Entry: COc1ccc2c(c1)CCC1C2CC[C@]2(C)C[C@H](NCc3ccccc3O)CC12 (stereo partly drawn)
41.5 nM

Reported IC50, compound `COc1ccc2c(c1)CC[C@@H]1[C@@H]2CC[C@]2(C)[C@@H](O)[C@H](N(C)c3cc4ccccc4cc3O)C[C@@H]12` : ____
29.9 nM
